Conditions: in vivo, po, 1440 min
QUANTITY MEASURED: Minimum toxic dose in the mouse (mg/kg)
Could you give me the number in mg/kg? Just the number is fine.

Exercise: Retrieve Minimum toxic dose in the mouse measured for `COc1ccc(CCN(C)CCN(C)CCOCC[C@@H]2CC[C@H]3C[C@@H]2C3(C)C)cc1OC` and print it.
Key: 300

Next, consider the following compound.
Exercise: Retrieve Minimum toxic dose in the mouse measured for `CCOCCN(C)CCOCC[C@@H]1CC[C@H]2C[C@@H]1C2(C)C` and print it.
Key: 100

----------
Here, each record is paired with measured Minimum toxic dose in the mouse data.
Conditions: in vivo, po, 1440 min

Exercise: Retrieve Minimum toxic dose in the mouse measured for `CC(C)N(CCOCC[C@@H]1CC[C@H]2C[C@@H]1C2(C)C)CCN1CCOCC1` and print it.
Key: > 300 mg/kg

Exercise: Retrieve Minimum toxic dose in the mouse measured for `CC(C)COCCN(C)CCO[C@@H]1C[C@H](C)CC[C@H]1C(C)C` and print it.
Key: > 300 mg/kg

Next, consider the following compound.
Exercise: Retrieve Minimum toxic dose in the mouse measured for `CC(C)[C@@H]1CC[C@@H](C)C[C@H]1OCCN(C)CCN1CCOCC1` and print it.
Key: > 300 mg/kg
